# Tested on: LXRb homodimer (NR concentration 270 nM)
# ASSAY COMMENT: PBM binding z-score (relative to random genomic background probes); higher = stronger binding; sequences stand for … in GC…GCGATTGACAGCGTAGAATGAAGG
PROPERTY: PBM binding z-score
I only need the number, thanks.

Entry under review: CCTACTGGGCCAAAAACGTCATTGATGCCGATAA . Reported PBM binding z-score?
-0.478

Could you do the same for TCATATAGGTACAGGTGAAAGTCGAACGATATGA , please?
-0.304

Param item: CCAGACAGGTGGAAGGTAACTCAGTCTGGTACGC
-0.752

What do you have for ACTAGCAGGCCAATTTTGGGTCACTCAAACAAAG ?
-0.68

Please do the same for TAGCCTAGGTCATTGGGCCAATATAGTACGCATC as well.
0.235

Do the same for CCTTACGGGTCACAAGGTTATAGCACGACGAGCG please
0.114

Then CCTAGCAGGCCAAGCTGGGTCACTCAAGGCTTGA ?
-1.36

Query CAAACTAGGTCAAGAGGTCAAAGTCCGCTTCCCG next
1.96

Try the sequence TCTCGGAGGACACGAAGGTAAGAGCTTTCCAGAG
-1.37

Another: AGTCTAAGTTCACTAGGTAACGTAAGATTCAGCT
0.221

Same again, this time with CGAACGCGGGCATGAGTTGATAGCAAATGCCGAT
-1.24

Then what about the sequence AAGACAGGGTCACTAGGCCAGAGTAGGTACGAAT ?
-0.368

---

# System: RARb homodimer (NR concentration 270 nM)
# ASSAY COMMENT: PBM binding z-score (relative to random genomic background probes); higher = stronger binding; sequences stand for … in GC…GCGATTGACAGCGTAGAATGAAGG
Binary call on PBM binding z-score: 1.0 from 0.9 upward, 0.0 beneath that.

Could you tell me if the measured PBM binding z-score of AGAACGAGCGCAATGAGTTGATAGCACGGGTGGC reaches 0.9 or more?
0.0

How about this sequence: CAAACTAGGTCAAGAGGGCAAAGTCCGCTTCCCG
1.0

How about TCTTGTAGAGCAACAGGAGGTTAAGAAAGATCGA ?
0.0

Another sequence: TTACCAAGGTGGAGGTCGTTGATCCCTCTGTAGA
1.0

Can you handle ACTAGCAGGCCAAGTTTGGGTCACTCAGACAAAG next?
1.0

# iterate: CGTAAAAGTTCAACTAAGGTAACGTAAAGCACGC
1.0

What do we get for CAAACTAGGTCAAAGGTCATAGTCGAGCCAACCA ?
1.0

Likewise for GTACCAGGGTGAATAGGTCGTTGATGAGTAGGCG ?
1.0

Now consider CCTCGGAGGACAACAGGAGGTCAGAGATGCCAGA and answer again.
1.0

And for GCTGCTAGGTCAACTGATCGTCAGCTAAAGCTCG ?
1.0

Next up: AGAACGAGGGCGCGCTGAGTTGATAGCAGAGTAG
0.0

Same again, this time with CCTACTGGGCCATCAGGTCATTGATATCAACGTT
1.0

Next sequence: CCTAGCAGGCCAGGGTCCCTCAAGCATTTCGCTT
0.0

How about this sequence: CCAACTGGGGCAAGGTTACCATAACGCACAGCCA
1.0

Next sequence up: CCTTACGGGTCACTGACAGGTTATAGGATTTGGA
1.0

And then CCTGCTAGGTCATGGTCAGCTATTCTACAGTATG , what is it?
1.0

// next record ACAGACAGGTGATGAAGGTAACTGAGGCTATCAT
0.0

Ok, now CAAACTAGGTCACCGGAAGGACAAAGTCCGCATG
1.0

Same lookup for ACTTACGGGTCAACGAGGTTATAGCGCGCGTATA , please.
1.0

Please give the result for CCTACTGGGCCATTCAGGGGTCATTGATCATATG too.
1.0

Next sequence: GCTGCTAGGTCTACTGATGGTCAGCTAAAGCTCG
0.0

// same read-out, input: CTCGAAAGGTCGGTTGAGGTGAGTAGACGGATAA
1.0

Then GCTATTAGTTGGAAGGGCAACCGAATGATTCTCG ?
1.0

Input ACTTATGGGTCAACGAGGTTATAGCACGCGTATA
1.0

Follow-up item: ACTAGCAGGCCAAGGGCCACTCAAGATTAGTCCG
0.0

Entry TCTTGTAGATCAAGCAGGTTAAGCAAGCCTGAGT please
0.0

# iterate: CCTAGTTGGTCTAGGTCACACACGCTATAGGTAC
1.0

Repeat for the following sequence: CCAGACAGGTGAAAGGTAACCCAGTCTGGTACGC
0.0

Would you mind doing TCTTGTAGCTCAGCAGGTTAAGAAAGCTGGCCAA as well?
0.0

// same read-out, input: CAAACTAGGTCTAAGGTCAAAGTCGAGCCAACCA
1.0

Field entry: CGACCTAGGTCATCCAGGACAGTGAATACATTGA
1.0

Similarly, CCTTACGGGTCACTGACAGGCTATAGCATTTGGA ?
1.0

Next entry: TCTGCTAGGTCAAGGATGGTCAGCTAATCTGCTA
1.0

Another sequence: TAGCCTAGGACATTGGGCCAGTATAGTACGCATC
0.0

Next entry: GCTTACGGGTCATAGGTTATAGCATGAATAGAAT
1.0

Next entry: TCTTGTAGATCATCAGGAGGTTAAGAAAGATCGA
0.0

And the next one, AGAAAGAGGTTACCAAAGATCAGGGAAACGCTTG ?
1.0

// repeat for CGTCCAAGGTCACTGCTAGGTCAGTGAAAGCATT and report
1.0

Would you kindly repeat that for CCTAGCACGCCAGGGTCACTCAAGCATTTCGCTT ?
1.0

What do you get for GGCACGAGGGCATTCGAGTTGATAGCATGGCGAT ?
0.0

Now try ATATGTAGGTTACATCCGGGACATTCAGGCTATG .
0.0

Same question, GGTTACGGGTCAAAGGTTATAGCATGAATAGAAT this time
1.0

Please do the same for CAAACTAGGTCACGAAATGTCAAAGTCGAATGAC as well.
1.0

For GCGACTGGGGCAAAGCAGGTTACCGTAAGGTTGG then?
1.0

Item: AGAATGAGGTTAAAATCAGGGAAACAGAATACAT
0.0

Would you mind doing ATCTCTAGGTAACCAAGTTCAGAGAATGCCGAAC as well?
1.0

Here is the next sequence: ATCTCTAGGTAAAGAAAGTTCAGTGAATGCAAAT
1.0

Next sequence: CCTAGCAGGCCAATCTGTGTCACTCAAGGCTTGA
0.0

Also, AATACAGGGTCACTAGGCCAGAGAAGGTACGAAT please.
1.0

Query CGAACTAGGTCAGAACAGGACAGTCAAGGATGAT next
1.0

---

# System: RARb:RXRa (NR concentration 270 nM, RXRa partner concentration 90 nM)
# ASSAY COMMENT: PBM binding z-score (relative to random genomic background probes); higher = stronger binding; sequences stand for … in GC…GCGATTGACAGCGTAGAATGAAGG
Field: PBM binding z-score. Provide a value for each of the sequences that follow.
Write no unit; give the number alone.

What does the record list as PBM binding z-score for GCGACTGGGGCATCAGCAGGTTCCCATAACTTAA ?
0.421

Again, but for TATACCGGGTCAAAGGCCAGAGTACGAATGTCGA
3.88

Item: TAGCCTAGGTCATGCGGGCCACTATAGTGTCGGC
3.69

Another sequence to look at: GATCCAGGGTCAAGGCCAGAGTACGCGTATTGAT
4.49

Try the sequence ACTAGCATGCCAAGGGTCACTCAAGATTAGTCCG
3.38

Note, next up: ATCTCTAGGTAACAAGTTCAGTGCAAGAGAGGAC
1.69

And then GCTGCTAGGTCAGGTTGGTCAGCTGACGGGTACG , what is it?
3.17

For CCTTACGGGTCACCGACAGGTTATAGCATTTGGA then?
4.52

// same read-out, input: ATCTGTAGGTAACCAAGTTCAGTGAATGCCGAAC
1.08

Likewise for TATACAGGGTCAAAGGCCCGAGTACGAATGTCGA ?
4.33

Also need TCGAGTTGGTTACCAATGGGGCATTCAGCTTTCT , thanks.
-0.219

And for CCTAGCAGGCCAGTGTCACTCAAGCATTTCGCTT ?
0.286

Same thing, different sequence: GGAACGTGGGCAAAGTTGATAGCATCTGTCGACG
0.113

Please answer likewise for TGAATGAGGTTATAAGATCACGGAACGTTGCAAA
1.5

Then this sequence: CAGCCTAGGTCAGGGCGAGTATAGGAGGAACGTT
3.19

Query ATCTCTAGTTAACAAGTTCAGTGAAAGAGAGGAC next
1.49

Next sequence: GCTTGTAGATCAAGGTTACGAAAGACTAAGCTAA
0.947

Quick one: CCTAGCAGGCCTATCTGGGTCACTCAAGGCTTGA
0.909

Item: TCTTGTGGATCAAAGGTTAAGAAAGCCGAAGCCT
1.82

What about CGTCCAACGTCATAGGAGGTCAGTGAAGACAGAT ?
2.14

And the next one, ACTATTAGTTGTGACGAGGGCAACCGATAGGTTG ?
1.06

And TAGCCTAGGTCAGAACGGGCCAGTATACGCTATA ?
2.75

Similarly, ATACCAAGGTGATCGAGAGGTCGTTGATACTAAC ?
1.56

CGTCCCAGGTCAATGCTAGGTCAGTGAAAGCATT , same question.
4.37

Here is the next sequence: AATACAGGGTCATCGTAGGCCAGAGTCCGCACAG
4.45

Here is the next sequence: AGAATGAGGTTAATAAGATCAGGGAATTGCGGTC
1.58

Could you do the same for TCATATAGGTAAACAGGTGAATGTCCGTAAGTTA , please?
0.708

Check GGAACGAGGGCAAAGTTGATAGCATCTGTCGACG too.
2.37
